Origin of the recorded values: patent US20240270821A1

// reported Internalization % TOP for each item listed
biological target: human GLP-1R (SNAP-GLP-1R expressed in HEK293 cells) (human) (UniProt P43220); experiment: cell-based or functional assay
Sequence (P43220 24-463): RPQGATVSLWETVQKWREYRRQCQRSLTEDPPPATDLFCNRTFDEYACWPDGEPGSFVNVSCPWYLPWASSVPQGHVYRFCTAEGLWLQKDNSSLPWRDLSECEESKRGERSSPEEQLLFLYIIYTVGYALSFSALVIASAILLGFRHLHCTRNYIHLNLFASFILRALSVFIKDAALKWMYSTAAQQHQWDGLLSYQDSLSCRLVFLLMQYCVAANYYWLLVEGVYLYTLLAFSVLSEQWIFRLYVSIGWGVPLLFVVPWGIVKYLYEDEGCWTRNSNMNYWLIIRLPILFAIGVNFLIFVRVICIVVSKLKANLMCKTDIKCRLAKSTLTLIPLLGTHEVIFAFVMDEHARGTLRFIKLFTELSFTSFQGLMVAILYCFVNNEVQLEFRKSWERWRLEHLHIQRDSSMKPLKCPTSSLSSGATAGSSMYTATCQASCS
PROPERTY_NAME: Internalization % TOP (%)

INSERT INTO results (binder, numeric_readout) VALUES
  ('YXQGTFTSDXSRXLDKKAQXAFIEYLLEXGESSGAPPPSGS (synthetic construct; SITE 2: note = 2-Aminoisobutyric Acid; SITE 10: note = 3-(4-Pyridyl)-L-alanine; SITE 13: note = alpha-methyl-leucine; SITE 17: note = Lysine is chemically modified through conjugation of the epsilon-amino group of the Lysine side chain with (2-[2-(2-Amino-ethoxy)-ethoxy]-acetyl)) [Example 132]', 67.2),
  ('YXQGTFTSDFSXXLDKKAQXAFIEYLLEXGXSSGAPPPSGS (synthetic construct; SITE 2: note = 2-Aminoisobutyric Acid; SITE 12: note = L-ornithine; SITE 13: note = alpha-methyl-leucine; SITE 17: note = Lysine is chemically modified through conjugation of the epsilon-amino group of the Lysine side chain with (2-[2-(2-Amino-ethoxy)-ethoxy]-acetyl)2-(gamma-Glu)) [Example 183]', 45.4),
  ('YXQGTFTSDFSXXLDKKAQXAFIEYLLEXGHSSGAPPPSGS (synthetic construct; SITE 2: note = 2-Aminoisobutyric Acid; SITE 12: note = L-ornithine; SITE 13: note = alpha-methyl-leucine; SITE 17: note = Lysine is chemically modified through conjugation of the epsilon-amino group of the Lysine side chain with (2-[2-(2-Amino-ethoxy)-ethoxy]-acetyl)2-(gamma-Glu)) [Example 181]', 47.5);
